Source listed as patent US20210214410A1.

# target-or-system: T1, human interleukin 13 receptor alpha 2 (IL-13Rα2), biotinylated (human, UniProt Q14627 27-343, limits assumed, biotinylated (site not stated))
# T1 construct: The methods give construct limits only for IL-13Rα1 and IL-4Rα1; For IL-13Rα2 they say only that the biotinylated receptor was captured on the SA chip; also called IL13RA2; CD213a2
# T1 sequence (looked up): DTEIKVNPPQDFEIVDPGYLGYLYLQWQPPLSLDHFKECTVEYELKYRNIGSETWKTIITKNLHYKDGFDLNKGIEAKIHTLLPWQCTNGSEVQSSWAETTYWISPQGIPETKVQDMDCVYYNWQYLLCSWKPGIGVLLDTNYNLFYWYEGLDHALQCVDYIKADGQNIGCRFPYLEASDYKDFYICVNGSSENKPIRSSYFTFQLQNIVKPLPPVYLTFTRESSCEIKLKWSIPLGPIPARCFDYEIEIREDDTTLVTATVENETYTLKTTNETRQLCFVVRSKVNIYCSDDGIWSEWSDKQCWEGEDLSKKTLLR
# assay-procedure: SPR (Biacore T100), biotinylated receptor on SA chip, 1:1 kinetic fit
parameter-measured: koff (s⁻¹)
Provide the reading as a plain figure in s⁻¹.

// query Which measured koff value corresponds to C10 (ligand, also called IL-13 variant C10 (L10H, R11L, V18I, R86M, K89R, R108K)) cytokine: PGPVPPSTAHLELIEELINITQNQKAPLCNGSMVWSINLTAGMYCAALESLINVSGCSAIEKTQRMLSGFCPHKVSAGQFSSLHVMDTRIEVAQFVKDLLLHLKKLFKEGQFN ?
// result 0.0061
